Target: LAP2, Q96RT1
Sequence (Q96RT1 other isoform, or with tags, fused parts or gaps): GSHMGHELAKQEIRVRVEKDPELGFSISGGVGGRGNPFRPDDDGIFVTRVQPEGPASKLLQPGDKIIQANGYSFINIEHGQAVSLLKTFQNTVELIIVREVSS
Test: holdup assay
Parameters: key: below the threshold = too weak to quantify, mostly under pKd 3.1 to 4
Conditions: plain residues with an end cap or a label only (N-terminal biotin on a linker: ado-ado)
Observable: pKd

Below are worked cases with known answers.
Per the record, VDSTVKVWTC [TRAF7, Q6Q0C0] has pKd of below the threshold

The binder YRLAQESGLV [ABCC6, O95255] showed pKd equal to below the threshold

pKd reading for EVNETDDTKM [KCNJ1, P48048] : 3.5

pKd in this record for PAPSSGKDYV [CLDN1, O95832] : below the threshold

Record HSGYRLNDYV [CLDN14, O95500] , field pKd: below the threshold

Now take the following binder into account.
// pKd value for QSPANIYYKV [EFNB1, P52799] : below the threshold
